Values from ChEMBL document CHEMBL2331400

# Test system: unidentified
# Procedure Details: Stabilization of duplex DNA T-loop (unknown origin) 5'-FAM-dTATAGCTATA-HEG-TATAGCTATA-TAMRA-3' assessed as melting temperature at 1 uM by FRET assay
Readout Label: ΔTm (°C)

CN1CCN(CCCNc2cc3c4c(c(NCCCN5CCN(C)CC5)cc5c4c2C(=O)N(CCCN2CCOCC2)C5=O)C(=O)N(CCCN2CCOCC2)C3=O)CC1: 4.9
CN1CCN(CCCNc2cc3c4c(c(NCCCN5CCN(C)CC5)cc5c4c2C(=O)N(Cc2ccco2)C5=O)C(=O)N(Cc2ccco2)C3=O)CC1: 0.3
CN1CCN(CCCNc2cc3c4c(c(NCCCN5CCN(C)CC5)cc5c4c2C(=O)N(CC2CCOCC2)C5=O)C(=O)N(CC2CCOCC2)C3=O)CC1: 0.2
COCCCN1C(=O)c2cc(NCCCN3CCN(C)CC3)c3c4c(cc(NCCCN5CCN(C)CC5)c(c24)C1=O)C(=O)N(CCCOC)C3=O: 0

(a) CN1CCN(CCCNc2cc3c4c(c(NCCCN5CCN(C)CC5)cc5c4c2C(=O)N(CCN2CCOCC2)C5=O)C(=O)N(CCN2CCOCC2)C3=O)CC1
(b) CN1CCN(CCNc2cc3c4c(c(NCCN5CCN(C)CC5)cc5c4c2C(=O)N(CCCN2CCOCC2)C5=O)C(=O)N(CCCN2CCOCC2)C3=O)CC1
Ask: Hi! Which is lower in terms of ΔTm, the first one a or the second one b ? In your reply, give the label of the chosen option.
Result: a
(a: 0.8 °C, b: 8.1 °C)
